biological target: histamine H4 receptor (Homo sapiens, UniProt Q9H3N8); construct: expressed in transfected cells; host or cells: HEK293SFM cells (membrane preparation); assay: H4 Membrane Binding Assay (3H-Histamine displacement); settings: membranes of recombinant HEK293SFM cells, 10 nM 3H-Histamine, 1.5 hr at room temperature
Property name: IC50 (nM)

> print(dat)
                                   compound  observed.measurement
1  CC(C)Oc1ccc(NC(=O)N2CCc3ccc(-c4cc(N5CCN(C)CC5)nc(N)n4)cc3C2)cc1                    50

I = CN1CCN(c2cc(-c3ccc4c(c3)CN(C(=O)Nc3ccc(-c5ccccc5)cn3)CC4)nc(N)n2)CC1
II = CN1CCN(c2nc(N)nc3cc(C(=O)NC4CCCc5ccc(OCc6cccc(C#N)c6)cc54)ccc23)CC1 (stereo not drawn)
Input line: For the pair I and II , which member has the lower IC50 number? Mark your selection by writing its label.
Output line: II

====

molecular target: histamine H4 receptor (Homo sapiens); experiment: H4 Membrane Binding Assay (3H-Histamine displacement); conditions: membranes of recombinant HEK293SFM cells, 10 nM 3H-Histamine, 1.5 hr at room temperature
pIC50: −log10 of the molar value.
Property name: pIC50

Study these solved cases before continuing.
> print(dat)
                                   molecule  property.name  observed.measurement
1  CN1CCN(c2cc(-c3ccc4c(c3)CN(C(=O)NC35CC6CC(CC(C6)C3)C5)CC4)nc(N)n2)CC1          pIC50                  7.72
2  CN1CCN(c2nc(N)nc3cc(C(=O)NC(Cc4nc5ccccc5s4)C(=O)N(C)C)ccc23)CC1 (centres unmarked)          pIC50                  6.72
3  CN1CCN(c2nc(N)nc3cc(C(=O)NC(Cc4ccc(C(F)(F)F)cc4)C(=O)N(C)C)ccc23)CC1 (centres unmarked)          pIC50                  7.36

P = CN1CCN(c2nc(N)nc3cc(C(=O)NCCc4ccccc4)ccc23)CC1
Q = Cc1ccc(C#N)c(Oc2cccc(CC(NC(=O)c3ccc4c(N5CCN(C)CC5)nc(N)nc4c3)C(=O)N(C)C)c2)n1 (centres unmarked)
R = CN1CCN(c2cc(-c3ccc4c(c3)CN(C(=O)OC3CCOC3)CC4)nc(N)n2)CC1 (centres unmarked)
Input line: List these items ordered by pIC50, big to small. // list labels; follow requested order
Output line: Q, P, R
(Q: 7.17, P: 6.89, R: 6.44)

a = CC(C)Oc1ccc(C[C@H](NC(=O)c2ccc3c(N4CCN(C)CC4)nc(N)nc3c2)C(=O)N(C)C)cc1
b = CN1CCN(c2cc(-c3ccc4c(c3)CN(C(=O)Nc3nc(-c5ccc(Cl)cc5)cs3)CC4)nc(N)n2)CC1
c = CN1CCN(c2cc(-c3ccc4c(c3)CN(C(=O)NC3(C(F)(F)F)CC3)CC4)nc(N)n2)CC1
Input line: List these items ordered by pIC50, big to small. // list labels; follow requested order
Output line: a, b, c

P = CN1CCN(c2nc(N)nc3cc(C(=O)N[C@@H](Cc4ccc(-c5ccccn5)cc4)C(=O)N(C)C)ccc23)CC1
Q = CN1CCN(c2nc(N)nc3cc(C(=O)NCC(=O)OCc4ccccc4)ccc23)CC1
Input line: For the pair P and Q , which member has the lower pIC50 number? Mark your selection by writing its label.
Output line: Q
(Q: 6.86, P: 7.28)

I = CC(C)OC(=O)N1CCC(OC(=O)N2CCc3ccc(-c4cc(N5CCN(C)CC5)nc(N)n4)cc3C2)CC1
II = COC(=O)c1ccc(COc2cccc3c2CCN(C(=O)c2ccc4c(N5CCN(C)CC5)nc(N)nc4c2)C3)cc1
III = CN1CCN(c2nc(N)nc3cc(C(=O)NCc4ccc(-c5ccccc5)cc4)ccc23)CC1
Input line: List these items ordered by pIC50, big to small. // list labels; follow requested order
Output line: I, II, III
(I: 7.42, II: 7.20, III: 6.72)

I = COC(=O)c1cccc(COc2cccc3c2CCN(C(=O)c2ccc4c(N5CCN(C)CC5)nc(N)nc4c2)C3)c1
II = CN1CCN(c2cc(-c3ccc4c(c3)CN(C(=O)OC3CCN(S(=O)(=O)C5CCCC5)CC3)CC4)nc(N)n2)CC1
Input line: Between the entries labelled I and II , which has a larger pIC50 value on record? Mark your selection by writing its label.
Output line: I
